Origin of measurements: paper PMC8901636

assayInfo: PK and tissue distribution after repeated oral administration in Ba/F3-EPOR-JAK2^V617F tumor-bearing mice
Type: in vivo
measurementContext: BALB/c nude, mouse; Plasma; repeated oral 30 mg/kg
attributeMeasured: Cmax (ng/mL)
Supply the numeric figure in ng/mL, leaving out any unit text.

Which value of Cmax has been reported for Cc1cnc(Nc2ccc(N3CCC(N(C)CCO)CC3)c(F)c2)nc1-c1cnn(C(C)C)c1 [FM] in the records? 1280

* * *

assayInfo: PK and tissue distribution after repeated oral administration in Ba/F3-EPOR-JAK2^V617F tumor-bearing mice
Type: in vivo
measurementContext: BALB/c nude, mouse, heart, oral, 30 mg/kg; repeated; 0.5 h; read-out: FM concentration, Heart
attributeMeasured: concentration at 0.5 h (ng/g)
Supply the numeric figure in ng/g, leaving out any unit text.

Which value of concentration at 0.5 h has been reported for Cc1cnc(Nc2ccc(N3CCC(N(C)CCO)CC3)c(F)c2)nc1-c1cnn(C(C)C)c1 [FM] in the records? 1890
